- experiment-description: Cell viability
- Type: cell-based
- assay-conditions: human, Caco-2 cells
List of IC50 at 48 h values.

Example cases with answers are listed next.
CCCCCCCCCCOc1c(OC)cc(C(=O)O)cc1OC
70 µM
CCCCCCCCOc1ccc(/C=C/C(=O)O)cc1OC
> 100 µM

Consider now this further molecule.
// IC50 at 48 h lookup, molecule = CCOc1c(OC)cc(C(=O)O)cc1OC , result: > 100 µM

---

- experiment-description: Cell viability
- Format: cell-based
- assay-conditions: human, HUVEC cells
experimental-readout: IC50 at 48 h

Some solved entries appear below for comparison.
CCCCCCCCOc1ccc(/C=C/C(=O)O)cc1OC [Compound 3e]
53.1 µM
CCOc1c(OC)cc(C(=O)O)cc1OC [Compound 5a, 4-Ethoxy-3,5-dimethoxybenzoic acid]
> 100 µM

Here is the next item to consider.
The compound listed as CCCCCCOc1c(OC)cc(C(=O)O)cc1OC [Compound 5d, 4-(Hexyloxy)-3,5-dimethoxybenzoic acid] shows IC50 at 48 h equal to > 100 µM
